tested system: human KLB and human FGFR1c co-expressed on HEK293/hKLB/hFGFR1c/SRE-luc cells (human, UniProt Q86Z14 1-1044; P11362 22-822)
Sequence (Q86Z14 whole entry, chain 1 of 2): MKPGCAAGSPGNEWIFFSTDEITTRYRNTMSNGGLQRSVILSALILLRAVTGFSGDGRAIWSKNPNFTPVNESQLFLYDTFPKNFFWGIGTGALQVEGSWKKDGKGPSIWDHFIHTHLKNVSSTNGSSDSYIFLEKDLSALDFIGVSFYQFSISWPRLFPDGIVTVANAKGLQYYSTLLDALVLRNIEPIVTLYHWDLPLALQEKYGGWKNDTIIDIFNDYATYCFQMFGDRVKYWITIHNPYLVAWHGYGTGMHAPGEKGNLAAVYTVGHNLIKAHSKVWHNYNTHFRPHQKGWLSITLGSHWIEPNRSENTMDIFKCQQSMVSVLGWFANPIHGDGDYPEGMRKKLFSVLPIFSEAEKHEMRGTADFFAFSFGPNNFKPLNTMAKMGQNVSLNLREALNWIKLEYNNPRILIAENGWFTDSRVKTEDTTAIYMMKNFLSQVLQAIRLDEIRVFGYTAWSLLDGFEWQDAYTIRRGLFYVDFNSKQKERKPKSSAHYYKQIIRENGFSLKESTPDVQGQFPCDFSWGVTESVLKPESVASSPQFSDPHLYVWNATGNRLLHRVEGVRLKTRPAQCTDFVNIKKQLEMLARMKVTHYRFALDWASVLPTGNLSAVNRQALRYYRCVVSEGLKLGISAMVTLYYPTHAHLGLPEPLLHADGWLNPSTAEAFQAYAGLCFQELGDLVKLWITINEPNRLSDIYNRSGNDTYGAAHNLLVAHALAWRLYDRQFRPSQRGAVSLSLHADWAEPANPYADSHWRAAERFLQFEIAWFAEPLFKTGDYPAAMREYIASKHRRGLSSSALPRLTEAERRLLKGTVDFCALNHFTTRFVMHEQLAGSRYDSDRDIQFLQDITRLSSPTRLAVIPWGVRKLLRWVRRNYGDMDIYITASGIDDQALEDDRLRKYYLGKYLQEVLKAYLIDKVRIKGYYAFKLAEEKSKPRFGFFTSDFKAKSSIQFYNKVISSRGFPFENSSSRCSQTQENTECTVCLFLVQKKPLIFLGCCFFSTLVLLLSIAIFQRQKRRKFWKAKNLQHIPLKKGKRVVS
Sequence (P11362 other isoform, or with tags, fused parts or gaps limits assumed, chain 2 of 2): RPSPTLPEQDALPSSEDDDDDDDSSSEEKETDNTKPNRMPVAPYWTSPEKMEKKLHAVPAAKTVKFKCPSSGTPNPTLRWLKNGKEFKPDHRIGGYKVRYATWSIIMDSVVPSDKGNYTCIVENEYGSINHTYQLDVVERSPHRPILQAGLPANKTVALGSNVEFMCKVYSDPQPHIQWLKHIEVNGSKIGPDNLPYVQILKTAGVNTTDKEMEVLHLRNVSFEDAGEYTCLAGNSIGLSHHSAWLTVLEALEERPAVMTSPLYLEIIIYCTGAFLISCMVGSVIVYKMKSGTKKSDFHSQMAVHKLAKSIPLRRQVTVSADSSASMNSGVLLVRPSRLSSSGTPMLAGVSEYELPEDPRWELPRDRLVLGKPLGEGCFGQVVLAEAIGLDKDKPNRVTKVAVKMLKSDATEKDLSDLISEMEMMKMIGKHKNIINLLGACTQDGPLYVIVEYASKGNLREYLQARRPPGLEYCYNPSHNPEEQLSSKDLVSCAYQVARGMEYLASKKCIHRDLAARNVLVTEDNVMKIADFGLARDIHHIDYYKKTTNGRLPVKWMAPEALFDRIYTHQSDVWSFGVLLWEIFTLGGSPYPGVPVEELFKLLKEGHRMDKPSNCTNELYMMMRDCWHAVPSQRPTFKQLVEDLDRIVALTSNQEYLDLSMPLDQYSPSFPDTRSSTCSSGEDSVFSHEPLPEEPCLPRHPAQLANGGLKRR
assay remarks: cell-based or functional assay
observation type: EC50, SRE-luc activation without ligand (pM)
Number in pM, nothing else.

Task: // returns reported EC50, SRE-luc activation without ligand for input H4H8881P (antibody, V domains shown, human IgG4 Fc (H4H prefix)) VH: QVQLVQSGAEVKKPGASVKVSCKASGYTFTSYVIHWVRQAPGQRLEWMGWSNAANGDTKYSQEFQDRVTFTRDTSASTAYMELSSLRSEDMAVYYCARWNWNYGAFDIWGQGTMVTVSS VL: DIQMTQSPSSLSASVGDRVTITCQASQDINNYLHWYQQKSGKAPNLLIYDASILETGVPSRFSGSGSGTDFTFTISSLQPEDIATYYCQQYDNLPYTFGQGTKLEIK
Output: 72

Task: Same lookup for H2aM8091N (antibody, V domains shown, mouse IgG2 Fc (H2aM prefix); also called H2M8091N) VH: QVQLVQSGADMKKPGASVKVSCKASGYTFTTYGINWVRQAPGQGLEWMGWISAYSGITNYAQSFQGRVTMTTDTSTSTAYMELRSLRSDDTAVYYCARGGYNWATGDYFDYWGQGTLVTVSS VL: DIQMTQSPSTLSASIGDRVTITCRASQSISSWLAWYQQKPGKAPKFLIYKASSLASGVPSRFSGSGSGTEFTLTISSLQPDDFATYYCQQYDSYSPYTFGQGTKVEIK , please.
Output: 3600

Task: Same lookup for H2aM8832N (antibody, V domains shown, mouse IgG2 Fc (H2aM prefix)) VH: QVQLVESGGGVVQPGRSLRLSCAASGFTFSRYGMHWVRQAPGKGLEWVAVIWYDGTNKYYEDSLKGRFTISRDNSKNTLYLQMNSLRAEDSAVYYCARDQGKYIDYWGQGTLVTVSS VL: AIQMTQSPSSLSASVGDRVTITCRTSQDIRNDLGWYQQKPGKVPNLLIYAASTLQSGVPSRFSGSGSGTDFTLTISSLQPEDFATYYCLQDYNYPFTFGPGTKVDIK , please.
Output: 750
